# experiment: Lipophilicity, log D of the compound at pH 7.4
# Format: physicochemical
# testConditions: buffer
Lab note: cut-off is 4. Strictly less in logD is condition met. Exactly 4 or more is condition not met.

logD under 4? Item: `Fc1ccc(Cn2ccc3c(OC4CCN(Cc5cscn5)CC4)ncnc32)cc1` condition met

logD under 4? Item: `Cn1ccnc1CN1CCC(Oc2ncnc3c2ccn3Cc2ccccc2)CC1` condition met

logD under 4? Item: `c1ccc(-n2ccc3c(OC4CCN(Cc5cscn5)CC4)ncnc32)cc1` condition met

logD under 4? Item: `c1nc(OC2CCN(Cc3cscn3)CC2)c2ccn(CC3CCCCC3)c2n1` condition not met

logD under 4? Item: `Fc1ccccc1Cn1ccc2c(OC3CCN(Cc4cscn4)CC3)ncnc21` condition met

logD under 4? Item: `Fc1cccnc1CN1CCC(Oc2ncnc3c2ccn3Cc2ccccc2)CC1` condition met

logD under 4? Item: `Fc1cccc(Cn2ccc3c(OC4CCN(Cc5ccccn5)CC4)ncnc32)c1F` condition met

logD under 4? Item: `Fc1c(Cl)cccc1Cn1ccc2c(OC3CCN(Cc4cscn4)CC3)ncnc21` condition not met

logD under 4? Item: `c1ccc(Cn2ccc3c(OC4CCN(c5ccccc5)CC4)ncnc32)cc1` condition not met

====

Assignment: determine reported logD for the given molecules.
# experiment: Lipophilicity, log D of the compound at pH 7.4
# Assay type: physicochemical
# testConditions: buffer
Response field accepts a number only; no unit should be typed.

Would you kindly share the measured logD for `Cc1cccnc1CN1CCC(Oc2ncnc3c2ccn3Cc2ccccc2)CC1` ? 4.15

Would you kindly share the measured logD for `CC1(C)C(=O)N(Cc2ccccc2)c2ncnc(OC3CCN(Cc4cscn4)CC3)c21` ? 2.39

Would you kindly share the measured logD for `Fc1ccccc1Cn1ccc2c(OC3CCN(Cc4ccccn4)CC3)ncnc21` ? 3.75

Would you kindly share the measured logD for `Clc1ccc(Cn2ccc3c(OC4CCN(Cc5cscn5)CC4)ncnc32)cc1` ? 4.03

Would you kindly share the measured logD for `c1ccc(Cn2ccc3c(OC4CCN(Cc5cocn5)CC4)ncnc32)cc1` ? 3.1

Would you kindly share the measured logD for `c1ccc(CCn2ccc3c(OC4CCN(Cc5cscn5)CC4)ncnc32)cc1` ? 3.87

Would you kindly share the measured logD for `c1ccc(Cn2ncc3c(OC4CCN(Cc5cscn5)CC4)ncnc32)cc1` ? 2.18

Would you kindly share the measured logD for `Clc1cn(Cc2ccccc2)c2ncnc(OC3CCN(Cc4cscn4)CC3)c12` ? 4.03

Would you kindly share the measured logD for `Cc1nc(CN2CCC(Oc3ncnc4c3ccn4Cc3ccccc3)CC2)cs1` ? 4.1

Would you kindly share the measured logD for `c1ccc(Cn2ccc3c(OC4CCN(Cc5cn[nH]c5)CC4)ncnc32)cc1` ? 3.16

Would you kindly share the measured logD for `c1ccc(Cn2ccc3c(OC4CCN(Cc5nccs5)CC4)ncnc32)cc1` ? 4.81

Would you kindly share the measured logD for `c1ccc(Cn2ccc3c(OC4CCN(Cc5c[nH]cn5)CC4)ncnc32)cc1` ? 2.35

Would you kindly share the measured logD for `Cc1ccnc(CN2CCC(Oc3ncnc4c3ccn4Cc3ccccc3)CC2)c1` ? 4.15

Would you kindly share the measured logD for `Clc1cccc(Cn2ccc3c(OC4CCN(Cc5cscn5)CC4)ncnc32)c1` ? 4.03

Would you kindly share the measured logD for `Cn1cc(CN2CCC(Oc3ncnc4c3ccn4Cc3ccccc3)CC2)cn1` ? 3.01

Would you kindly share the measured logD for `c1ccc(Cn2ccc3c(OC4CCN(Cc5ccccn5)CC4)ncnc32)cc1` ? 3.7

Would you kindly share the measured logD for `FC(F)(F)c1ccc(Cn2ccc3c(OC4CCN(Cc5cscn5)CC4)ncnc32)cc1` ? 4.01

Would you kindly share the measured logD for `Cc1cccc(Cn2ccc3c(OC4CCN(Cc5cscn5)CC4)ncnc32)c1` ? 3.9

Would you kindly share the measured logD for `O=C(c1cscn1)N1CCC(Oc2ncnc3c2ccn3Cc2ccccc2)CC1` ? 3.07

Would you kindly share the measured logD for `Cc1nc(OC2CCN(Cc3cscn3)CC2)c2ccn(Cc3ccccc3)c2n1` ? 4.15

Would you kindly share the measured logD for `Cc1ccc(CN2CCC(Oc3ncnc4c3ccn4Cc3ccccc3)CC2)nc1` ? 4.15

Would you kindly share the measured logD for `c1ccc(CN2CCC(Oc3ncnc4c3ccn4Cc3ccccc3)CC2)cc1` ? 4.96

====

# experiment: Solubility in phosphate buffered saline
# Type: physicochemical
measurementKind: solubility
# include the unit after the value

Would you kindly share the measured solubility for `Cc1c(C)n(Cc2ccccc2)c2ncnc(OC3CCN(Cc4cscn4)CC3)c12` ? 65 µg/mL

====

# experiment: Solubility in simulated intestinal fluid
# Assay type: physicochemical
measurementKind: solubility (µg/mL)
# output: bare number, implied unit µg/mL

Would you kindly share the measured solubility for `Cc1c(C)n(Cc2ccccc2)c2ncnc(OC3CCN(Cc4cscn4)CC3)c12` ? 177

====

# experiment: Solubility in 0.01 N HCl
# Assay type: physicochemical
measurementKind: solubility

Would you kindly share the measured solubility for `Cc1c(C)n(Cc2ccccc2)c2ncnc(OC3CCN(Cc4cscn4)CC3)c12` ? > 200 µg/mL

====

# experiment: Lipophilicity, log D of the compound at pH 7.4
# Format: physicochemical
# testConditions: buffer
measurementKind: logD
Response field accepts a number only; no unit should be typed.

Would you kindly share the measured logD for `c1ccc(Cn2ccc3c(OC4CCN(Cc5cccnc5)CC4)ncnc32)cc1` ? 3.67

Would you kindly share the measured logD for `FC(F)(F)c1nc(OC2CCN(Cc3cscn3)CC2)c2ccn(Cc3ccccc3)c2n1` ? 5.1

Would you kindly share the measured logD for `Fc1cn(Cc2ccccc2)c2ncnc(OC3CCN(Cc4cscn4)CC3)c12` ? 3.49

Would you kindly share the measured logD for `FC(F)(F)c1cccc(Cn2ccc3c(OC4CCN(Cc5cscn5)CC4)ncnc32)c1` ? 4.01

Would you kindly share the measured logD for `c1ccc(Cn2ccc3c(OC4CCN(Cc5ccn[nH]5)CC4)ncnc32)cc1` ? 3.02

Would you kindly share the measured logD for `c1ccc(Cn2ccc3c(OC4CCN(Cc5cscn5)CC4)ncnc32)cc1` ? 3.44

Would you kindly share the measured logD for `CC1(C)CN(Cc2ccccc2)c2ncnc(OC3CCN(Cc4cscn4)CC3)c21` ? 3.94

Would you kindly share the measured logD for `Cc1c(C)n(Cc2ccccc2)c2ncnc(OC3CCN(Cc4cscn4)CC3)c12` ? 4.35

Would you kindly share the measured logD for `Fc1c(Cn2ccc3c(OC4CCN(Cc5cscn5)CC4)ncnc32)cccc1C(F)(F)F` ? 4.08

Would you kindly share the measured logD for `Fc1c(Cn2ccc3c(OC4CCN(Cc5ccccn5)CC4)ncnc32)cccc1C(F)(F)F` ? 4.35
